experiment: yeast display, Sf9 membrane polyspecificity reagent, FACS + sequencing; frameworks hold sequencing errors

{"biosequence": "QVQLVESGGGLVQAGGSLRLSCAASGSIFVHYDMGWYRPAPGKERELVADIDYSGGSTYYADSVKGRFTISRDNAKNTVYLQMNSLKPEDTAVYYCAAERRRWGLDYYYWGQGTQVTVSS", "polyreactivity (PSR sort gate)": "high polyreactivity"}
{"biosequence": "QVQLVESGGGLVQAGGSLRLSCAASGSTFRYYAMGWYRQAPGKERELVAAISGSGGSTYYADSVKGRFTISRDNAKNTVYFQMNSLKPEDTAVYYCNKVYARLVLSYDSWGQGTQVTVSS", "polyreactivity (PSR sort gate)": "high polyreactivity"}
{"biosequence": "QVQLVESGGGLVQAGGSLRLSCAASGSIFFRYAMGWYRPAPGKERELVAAISSSGGSTYYADSVKGRFTISRDNAKNTVYLQMNSLKPEDTAVYYCAARYYSKYYYSPFDYWGQGTQVTVSS", "polyreactivity (PSR sort gate)": "high polyreactivity"}
{"biosequence": "QVQLVESGGGLVQAGGSLRLSCAASGSTFAGNTMGWSRQAPGKERELVAAITWNGGRTRYADSVKGRFTISRDNAKNTVYLQMNSLKPEDTAVYYCNAGPWYENMDYWGQGTQVTVSS", "polyreactivity (PSR sort gate)": "high polyreactivity"}

----------
assay: yeast display, Sf9 membrane polyspecificity reagent, FACS + sequencing; frameworks hold sequencing errors

{"biosequence": "QVQLVESVGGLVQPGGSLRLSCAASGRTFGRYAKGWYRQAPGKERELVAGISRSGDSTHYADSLKGRFTISRDNAKYCVYLQMKSLKPEDTEVYYCNKETPTIGARKYEYWGQGTQVNVSS", "polyreactivity (PSR sort gate)": "low polyreactivity"}
{"biosequence": "QVQLEESGGGLVQAGGSLRLSCAASGLTFVQYTMGWYRQAPGKERELVAVITSASSTNYADSVKGRFTISRDNAKNTVYLQMNSLKPEDPAVYYCNATTYPYYTNSYQYEYWGQGTQVTVSS", "polyreactivity (PSR sort gate)": "low polyreactivity"}
{"biosequence": "QVQLVDSRGGLVQAGGSLRLSCAASGRTLYSNAKGLSRQAPGKERDLVAAISGSGDTTYYADSVKGRFTISRDNAKNTVYLTMKSLKPEDTAVYYCAADHDSYGAGYEYCGQGTQVTVSS", "polyreactivity (PSR sort gate)": "low polyreactivity"}

----------
assay: yeast display, Sf9 membrane polyspecificity reagent, FACS + sequencing; frameworks hold sequencing errors
readout label: polyreactivity (PSR sort gate)

{"biosequence": "QVQLVESGGGLVQAGGSLRLSCAASGSTFDRYDMGWYRQAPGKERELVAAITRRGGSTYYADSVKGRFTISRDNAKNTVYLQMNSLKPEDTAVYYCNAKHFAYSVAHPYLRYGYDYWGQGTQVTVSS", "polyreactivity (PSR sort gate)": "low polyreactivity"}
{"biosequence": "QVQLVESGGGLVQAGGSLRLSCAASGRIFWSYAMGWYRPAPGKERELVAAISYSGGGTYYADSVKGRFTISRDNAKNTVYLQMNSLKPEDTAVYYCAAETYYAPYDYWGQGTQVTVSS", "polyreactivity (PSR sort gate)": "high polyreactivity"}
{"biosequence": "QVQLVESGGGLVQAGGSLRLSCAASGSIFSNNAMGWYRQAPGKERELVAAISRSGTNTYYADSVKGRFTISRDNAKNTVYLQMNSLKPEDTAVEYCAARGVYVKYYYWGQGTQVTVSS", "polyreactivity (PSR sort gate)": "high polyreactivity"}
{"biosequence": "QVQLVESGGGLVQAGGSLRLSCAASGRTFGANAMGWYRQAPGKERELVAAISSSDDSTYYADSVKGRFTISRDNAKNTVYLQMNSLKPEDTAVYYCAAEDVYPQLDYWGQGTLVTVSS", "polyreactivity (PSR sort gate)": "low polyreactivity"}
{"biosequence": "QVQLVESGGGLVQAGGSLRLSCAASGFTFPKYAMGWYRQAPGKERELVAAITWSGGSTRYADSVKGRFTISRDNAKNTVYLQMNSLKPEDTAVYYCAADRRSGYSRYKYGRGDYWGQGTQVTVSS", "polyreactivity (PSR sort gate)": "high polyreactivity"}

input: Query (sequence): `QVQLVESGGGLVQAGGSLRLSCAASGRIFAYYAMGWYRQAPGKERELVAVISKSGGSTNYADSVKGRFTISRDYAKNTVYLQMNSLKPEDTAVYYCAKRAYDPEMYYWGQGTQVTVSS` ; field requested: polyreactivity (PSR sort gate)
output: low polyreactivity

input: Query (sequence): `QVQLVESGGGLVQAGGSLRLSCAASGFIFWNYAMGWNRQAPGKERDLVAAISSGGTITKYADSVKGRFTISRDKAKNTVYLQMNSLKPEDTAVYYCNAVVRVRFRKNDYWGQGTQVTVSS` ; field requested: polyreactivity (PSR sort gate)
output: high polyreactivity

input: Query (sequence): `QVQLVESGGGLVQAGGSLRLSCAASGSTLYRNAMGWYRQAPGKERELVAAINYRGTRTYYADSVKGRFTISRDNAKNTVYLQMNSLKPEDTAVYYCAKDYSQFVTYPYDYWGQGTQVTVSS` ; field requested: polyreactivity (PSR sort gate)
output: low polyreactivity

----------
test: yeast display, Sf9 membrane polyspecificity reagent, FACS + sequencing; frameworks hold sequencing errors
readout label: polyreactivity (PSR sort gate)

{"biosequence": "QVQLVESGGGLVQAGGSLRLSCAASGLTFGAYAMGWYRQAPGKEREFVAAITYSGGSTNYADSVKGRFTISRDNAKNTVYLQMNSLKPEDTAVYFCNAGYYSPWAFYPYAYWGQGTQVTVSS", "readout label": "polyreactivity (PSR sort gate)", "recorded result": "high polyreactivity"}
{"biosequence": "QGQLVESWGGLVQAGGSLRLSCAASGSTFCDYAMGWYRQAPGQERELVAAIDWSDGSTYYADSVKGRFTSSRDNAKNTGYLQMNSLKPEDTAVYYCAAEQWYGMYYWGQGTQVTVSS", "readout label": "polyreactivity (PSR sort gate)", "recorded result": "high polyreactivity"}
{"biosequence": "QVQLVESGGGLVQAGGSLRISCAASGRIFEVYDMGWYRQAPGKERELVAAISESDDNTYYADSVKGRFTISRDNAKNTVYLQMNSLKPEDTEVYYCNADVPGDTGWWGFDYWGQGTQVTVSS", "readout label": "polyreactivity (PSR sort gate)", "recorded result": "low polyreactivity"}
{"biosequence": "QVQLVESGGGLVHAGGSLRLSCAASGSIFTRNAMGWYRQAPGKERELVAAISRRGVSTYYADSVKGRFTISRDNAKNTVYLQMNSLKPEDTAVYYCNATIRYYRRGKLYDYWGQGTQVTVSS", "readout label": "polyreactivity (PSR sort gate)", "recorded result": "high polyreactivity"}
{"biosequence": "QVQLVESGGGLVQAGGSLRLSCAASGSIFDSYAMGWSRQAPGKERELVAAITWSGGITFYADSVKGRFTISRDNAKNTVYLQMNSLKPEDTAVYYCATARSYVGVGGTFVGLYDYWGQCTQVTVSS", "readout label": "polyreactivity (PSR sort gate)", "recorded result": "low polyreactivity"}

input: Query (sequence): `QVQLEESRGGLVQAGGSLRLSCAASGYIFSYYDMGWYRQAPGKERELVASITSSGGSTYYADSVKGRFTISRDNGKNTVYLQMNSLKPEDTAVYYCNADVYDTYSPLGYYFWGQGTQVTVSS` ; field requested: polyreactivity (PSR sort gate)
output: low polyreactivity

input: Query (sequence): `QVQLVESGGGLVQAGGSLRLSCAASGSTIPSYAMGWYRAAPGKERELVASITYSDGPTRYADSEKGRFTISRDNAKNTVFLQMNSLKPEDTAVYYCNAVYYREGMDYWGQGNQVTVSS` ; field requested: polyreactivity (PSR sort gate)
output: low polyreactivity

input: Query (sequence): `QVQLVESGGGLVQAGGSLRLSCAASGITFRRNAMGWYRQAPGKERELVAAITSRGGSTYYADSVKGRFTISRDNAKNTVYLQMNSMKPEDTAVYYCNAGGVDRVDRDYWGQGTQVTVSS` ; field requested: polyreactivity (PSR sort gate)
output: high polyreactivity

----------
assay: yeast display, Sf9 membrane polyspecificity reagent, FACS + sequencing; frameworks hold sequencing errors
readout label: polyreactivity (PSR sort gate)

{"biosequence": "QVQLVESGGGLVQAGGSLRLSCAASGRIFGAYAMGWYRQAPGKERELVAAITSRGGNTYYADSVKGRFTISRDNAKNTVFLQMNSLKPEDTAVYYCAARHDTRRQYYVGQSAFDYWGQGTQVTVSS", "readout label": "polyreactivity (PSR sort gate)", "recorded result": "low polyreactivity"}
{"biosequence": "HVQIVESGGGLVQAGGRLRLSCAASGSTFHDYAMGWYRQATGQERELVAAISNSGGSTYYADSVKARFTISRDNAKNTVYLQMKSQKPEYTAVYYCAADGRWYWDYEYWGQGTQVTVSS", "readout label": "polyreactivity (PSR sort gate)", "recorded result": "low polyreactivity"}
{"biosequence": "QVQLVESGGGLVQAGGSLRLSCAASGLIFTGYAMGWYRQAPGKERELVAAITSGGGTNYADSVKGRFTISRDNAKNTVYLQMNSLKPEDTAVYYCAVDFGHYYLYSITSYLWYWDGYDYWGQGTQVTVSS", "readout label": "polyreactivity (PSR sort gate)", "recorded result": "low polyreactivity"}
